Data provenance is the supplement of paper PMC10567573.

B1: FUNDC2 (parent)
chain: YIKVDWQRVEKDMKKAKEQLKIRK

variants of: B1; assay: protein stability index of a GFP-peptide fusion (GPS, HEK-293T) (PSI 1-6); higher = more stable; settings: c terminus: a fixed tail appended;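 note: lentivirally expressed fusions sorted by FACS into six bins by GFP to DsRed ratio, PSI derived from sequencing read proportions per bin multiplied by bin number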
Below: a set of entries, each annotated with reported protein stability index.

sequence-code | protein stability index
YIKVDWQRVEKDMKDAKEQLKIRK | 2.05
YIKVDWQRVEKDMKKAMEQLKIRK | 2.83
YIKVDWQRVEKDMKKAKEVLKIRK | 1.19
YIKVDWQRVEKDMKKAIEQLKIRK | 1.71
YIKVDWQRVEKDMKKAKEKLKIRK | 1.32
YIKVDWQRVEKDMKKIKEQLKIRK | 2.06
YIKVDWQRVEKDMKKAKKQLKIRK | 1.84
YIKVDWQRVENDMKKAKEQLKIRK | 2.59
YIKVDWQRVEKDQKKAKEQLKIRK | 1.82
YIKVDWQRVEKDMKKAKEQDKIRK | 1.77
YIKVDWQRVERDMKKAKEQLKIRK | 2.09
YIKVDWQRVEKDMKHAKEQLKIRK | 1.44
YIKVDWQRVEKDMMKAKEQLKIRK | 1.9
YIKVDWKRVEKDMKKAKEQLKIRK | 1.95
YIVVDWQRVEKDMKKAKEQLKIRK | 2.79
PIKVDWQRVEKDMKKAKEQLKIRK | 3.81
YIKVDWQRVEKDMKKAKEQLKITK | 2.19
YIKVDWIRVEKDMKKAKEQLKIRK | 2.7
YIKVDWQRVEKDMKKTKEQLKIRK | 1.89
YIKVDWQRVEKDMKKAKEQWKIRK | 2.65
YIKVDWQRVEKDMKKALEQLKIRK | 2.21
YIKVDWQKVEKDMKKAKEQLKIRK | 2.01
YIKVDWQRQEKDMKKAKEQLKIRK | 2.16
YIKVDWQRVEKDMKKAKEQLKRRK | 1.29
YIKVTWQRVEKDMKKAKEQLKIRK | 2.29
YIKVDWQIVEKDMKKAKEQLKIRK | 1.82
YIKVDWQRVEKDPKKAKEQLKIRK | 1.17
YIKVDWQRVEKPMKKAKEQLKIRK | 1.45
YIKVDQQRVEKDMKKAKEQLKIRK | 2.71
YIKVDWQRVEKDMKKAKEQIKIRK | 2.42
YIKVDWQDVEKDMKKAKEQLKIRK | 2.05
YIKVDWQRVEKDMKKAKEQLKYRK | 1.88
YIKVDWQRVEKDMKKAKHQLKIRK | 2.41
GIKVDWQRVEKDMKKAKEQLKIRK | 4.26
YIKVDWQRVEKDMKKAKFQLKIRK | 1.65
YIKVDWQRVEKDMKKACEQLKIRK | 2.19
IIKVDWQRVEKDMKKAKEQLKIRK | 2.21
QIKVDWQRVEKDMKKAKEQLKIRK | 3.49
